EXPERIMENTAL_TARGET: TYK2 (Homo sapiens, UniProt P29597)
Sequence (P29597 whole entry): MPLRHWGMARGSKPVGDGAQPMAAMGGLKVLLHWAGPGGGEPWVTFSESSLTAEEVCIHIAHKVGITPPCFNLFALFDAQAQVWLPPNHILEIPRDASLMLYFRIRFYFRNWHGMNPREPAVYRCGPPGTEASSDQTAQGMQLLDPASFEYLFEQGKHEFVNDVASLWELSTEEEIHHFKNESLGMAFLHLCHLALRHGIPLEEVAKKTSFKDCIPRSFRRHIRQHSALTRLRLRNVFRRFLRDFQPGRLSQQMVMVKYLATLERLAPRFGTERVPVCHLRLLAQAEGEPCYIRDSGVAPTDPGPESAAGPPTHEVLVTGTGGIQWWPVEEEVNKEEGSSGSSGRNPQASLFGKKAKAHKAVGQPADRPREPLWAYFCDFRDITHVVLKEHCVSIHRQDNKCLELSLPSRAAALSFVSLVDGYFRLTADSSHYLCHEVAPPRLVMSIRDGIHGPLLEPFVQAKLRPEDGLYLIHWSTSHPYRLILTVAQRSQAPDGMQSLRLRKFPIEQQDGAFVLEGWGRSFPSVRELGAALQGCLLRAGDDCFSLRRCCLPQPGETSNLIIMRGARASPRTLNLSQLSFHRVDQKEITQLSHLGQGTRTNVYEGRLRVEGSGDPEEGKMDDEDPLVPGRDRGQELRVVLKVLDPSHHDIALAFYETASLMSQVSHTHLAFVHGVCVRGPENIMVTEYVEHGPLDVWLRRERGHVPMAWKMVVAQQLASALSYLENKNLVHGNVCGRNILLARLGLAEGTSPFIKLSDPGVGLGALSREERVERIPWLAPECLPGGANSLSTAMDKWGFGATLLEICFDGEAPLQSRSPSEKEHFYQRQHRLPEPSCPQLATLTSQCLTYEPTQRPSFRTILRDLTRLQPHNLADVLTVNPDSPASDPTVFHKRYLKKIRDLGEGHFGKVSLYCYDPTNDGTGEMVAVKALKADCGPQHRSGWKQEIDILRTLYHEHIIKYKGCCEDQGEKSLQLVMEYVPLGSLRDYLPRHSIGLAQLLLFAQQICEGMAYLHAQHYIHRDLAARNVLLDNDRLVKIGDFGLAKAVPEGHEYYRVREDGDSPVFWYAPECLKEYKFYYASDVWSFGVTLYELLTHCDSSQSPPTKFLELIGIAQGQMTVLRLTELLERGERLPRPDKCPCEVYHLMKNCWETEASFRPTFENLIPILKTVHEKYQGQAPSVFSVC
ASSAY_OVERVIEW: TYK2 cellular ELISA assay using NK92 cells (IL-12 and IL-18 stimulated IFNγ excretion)
Assay type: cell-based
MEASUREMENT_CONDITIONS: IL-12 2 ng/ml and IL-18 5 ng/ml, 24 hours
Description: Purpose: test cellular TYK2 activity using IL-12 and IL-18 stimulated IFNγ excretion assay in NK92 cells. • 1. Replace NK92 cell media with IL-2 by media without IL-2, maintain overnight; • 2. Plate NK92 cells to 96-well plate at density of ~150,000 cell/well; • 3. Add different concentrations of test article to wells, maintain in incubator at 37° C. and 5% CO2 for 1 hour; • 4. […]
MEASUREMENT_KIND: IC50

Query: Name the recorded IC50 of the item `Cc1cnc(Nc2cnn(C)c2)nc1-c1cnn([C@H](CC#N)C2CCCC2)c1` in your answer.
Reply: < 0.01 µM
